# target: Neu5Ac(a2-3)Gal(b1-3)GlcNAc(b1-3)GalNAc
# test details: glycan array binding signal (z-score within array); higher = stronger binding
# recorded conditions: glycan notation: IUPAC condensed, linker removed
The entries come from a sample that favours the strongest signals as a whole.
Outcome: y for glycan array binding signal (z-score) of at least -0.1; n for anything lower.

- DCL-1 (Homo sapiens), Q8IX05 (protein) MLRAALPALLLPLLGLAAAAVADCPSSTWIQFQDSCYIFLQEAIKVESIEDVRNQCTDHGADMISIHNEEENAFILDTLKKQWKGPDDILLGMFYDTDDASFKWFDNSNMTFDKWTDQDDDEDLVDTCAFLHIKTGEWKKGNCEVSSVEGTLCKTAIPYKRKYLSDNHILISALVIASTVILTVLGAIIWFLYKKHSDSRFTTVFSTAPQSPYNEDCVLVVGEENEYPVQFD: y
- MGL6A (Homo sapiens) (protein) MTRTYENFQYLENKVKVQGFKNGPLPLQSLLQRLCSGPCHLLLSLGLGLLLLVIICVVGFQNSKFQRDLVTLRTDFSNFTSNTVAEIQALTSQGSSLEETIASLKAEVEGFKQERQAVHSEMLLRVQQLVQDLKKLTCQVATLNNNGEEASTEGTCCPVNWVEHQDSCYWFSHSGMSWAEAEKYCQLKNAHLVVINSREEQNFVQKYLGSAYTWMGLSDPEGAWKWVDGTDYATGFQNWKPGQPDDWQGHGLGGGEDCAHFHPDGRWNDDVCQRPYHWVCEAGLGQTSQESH: n
- Actd5 (Actinidia), P84527 (protein) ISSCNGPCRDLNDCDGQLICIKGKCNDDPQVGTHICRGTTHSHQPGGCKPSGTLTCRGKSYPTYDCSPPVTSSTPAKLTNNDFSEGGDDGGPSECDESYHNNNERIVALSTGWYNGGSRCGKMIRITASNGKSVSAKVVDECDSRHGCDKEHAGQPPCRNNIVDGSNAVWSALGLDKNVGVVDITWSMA: y
- SEX4 (Arabidopsis thaliana), Q944A8 (protein) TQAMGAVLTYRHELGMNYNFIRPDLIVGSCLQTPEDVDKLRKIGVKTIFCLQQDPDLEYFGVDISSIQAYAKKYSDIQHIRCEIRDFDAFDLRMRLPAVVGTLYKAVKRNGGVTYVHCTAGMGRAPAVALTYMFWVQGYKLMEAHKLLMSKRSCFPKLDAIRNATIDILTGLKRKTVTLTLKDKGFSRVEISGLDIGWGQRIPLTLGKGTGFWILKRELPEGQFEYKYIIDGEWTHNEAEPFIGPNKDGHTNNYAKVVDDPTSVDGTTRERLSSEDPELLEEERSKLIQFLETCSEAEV: y

Please turn your attention to the following entry.
Hi, just wondering whether NPA (Narcissus pseudonarcissus), C0HM45 (protein) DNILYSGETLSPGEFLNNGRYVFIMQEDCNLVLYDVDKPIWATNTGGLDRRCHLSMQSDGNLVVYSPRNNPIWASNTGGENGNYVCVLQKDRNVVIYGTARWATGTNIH shows glycan array binding signal (z-score) of -0.1 or higher.
n
